Target: T1, His6-Mm.USP18 (46-368) (mouse, UniProt Q9WTV6 46-368)
T1 chain: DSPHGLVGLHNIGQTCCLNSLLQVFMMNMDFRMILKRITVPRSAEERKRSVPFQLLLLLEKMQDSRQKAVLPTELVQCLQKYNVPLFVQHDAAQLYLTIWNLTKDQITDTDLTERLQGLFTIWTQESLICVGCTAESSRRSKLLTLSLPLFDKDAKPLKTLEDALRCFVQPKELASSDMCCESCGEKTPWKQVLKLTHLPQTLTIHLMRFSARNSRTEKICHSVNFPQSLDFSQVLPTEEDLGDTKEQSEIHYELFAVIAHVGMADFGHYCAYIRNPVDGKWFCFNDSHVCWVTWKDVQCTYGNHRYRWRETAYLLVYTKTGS
Assay: SPR
pKd: −log10 of the molar value.
endpoint_label: pKd

binder	pKd
Ac-mISG15CTD-OH (wild type) (domain or fragment, N-terminal acetyl) LSILVRNERGHSNIYEVFLTQTVDTLKKKVSQREQVHEDQFWLSFEGRPMEDKELLGEYGLKPQSTVIKHLRLRG	5.60

1. Ac-mISG15CTD[R153Agb]-OH (domain or fragment, N-terminal acetyl; Agb (2-amino-4-guanidino-butyric acid) at 153) LSILVRNERGHSNIYEVFLTQTVDTLKKKVSQREQVHEDQFWLSFEGRPMEDKELLGEYGLKPQSTVIKHLRLXG
2. Ac-mISG15CTD[R153Phe(guan)]-OH (domain or fragment, N-terminal acetyl; Phe(guan) (guanidino-phenylalanine) at 153) LSILVRNERGHSNIYEVFLTQTVDTLKKKVSQREQVHEDQFWLSFEGRPMEDKELLGEYGLKPQSTVIKHLRLFG
### Prompt I'm curious, which of these has a smaller pKd number: 1 or 2 ? When you have decided, please share the label of that item.
### Response 1
(1: 5.35, 2: 5.76)
